Test system: CP185
Experiment: qHTS profiling for inhibitors of Plasmodium falciparum proliferation (AID 504749); also: nearly all actives have a fitted effect of over 60% in size
Settings: P. falciparum in erythrocytes, SYBR Green DNA, 72 h; series mostly up to 12.8 µM
Inconclusive results are not listed. Activity calls are given as the source filed them. Calls follow the shape of the dose curve; as a rule, active = well fitted inhibition curve with a large enough effect; inconclusive = small, poorly fitted or top-dose-only effect; inactive = flat fitted curve, though single readings scatter.
Just give me one of these, please: 1 for active, 0 for inactive

CC[C@@]12CCCN3CCc4c(n(c5ccccc45)[C@](O)(C(=O)OC)C1)C32 (stereo partly specified) ... 0

Short answer needed: outcome of this test for `CN[C@H]1[C@@H](O)[C@@H](NC)[C@@H]2O[C@@]3(O)C(=O)C[C@@H](C)O[C@H]3O[C@H]2[C@H]1O` ? 0

Field: outcome | Entry: `CC(=C(CCOP(=O)(O)O)SC(=O)c1ccccc1)N(C=O)Cc1cnc(C)nc1N` 0

Hey, what did the test say about `CO[C@H]1[C@@H](OC(N)=O)[C@H](O)[C@@H](Oc2ccc3c(O)c(NC(=O)c4ccc(O)c(CC=C(C)C)c4)c(=O)oc3c2C)OC1(C)C` ? 0

Fill in: this test's call for CO[C@]1(NC(=O)C2SC(=C(C(N)=O)C(=O)O)S2)C(=O)N2C(C(=O)O)=C(CSc3nnnn3C)CS[C@H]21 (stereo partly specified) is ___ 0

Identify the outcome logged in this assay for the compound shown: COC1C=CO[C@@]2(C)Oc3c(C)c(O)c4c(O)c(c5c(nc6cc(C)ccn65)c4c3C2=O)NC(=O)/C(C)=C\C=CC(C)C(O)[C@@H](C)C(O)C(C)[C@@H](OC(C)=O)C1C (stereo partly specified) 1

Dear all, I need the recorded test outcome for `CC(=O)O[C@]1(C(C)=O)CC[C@@H]2[C@@H]3C=C(C)C4=CC(=O)CC[C@@]4(C)[C@H]3CC[C@]21C` , thank you. 0

Outcome? COc1ccc2cc1Oc1ccc(cc1)CC1c3c(cc4c(c3Oc3cc5c(cc3OC)CCN(C)C5C2)OCO4)CCN1C (stereo unspecified) 1

Could you check what this test reported for `c1ccc2c(c1)CCC[C@@H]2C1=NCCN1` ? 0

====

Target: Rap guanine nucleotide exchange factor 4 (Homo sapiens)
Assay: Confirmatory qHTS for agonist of cAMP-regulated guanine nucleotide exchange factor 4 (EPAC2) (AID 1645884);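 also: nucleotide exchange releases bodipy-GDP from Rap1 and this lowers its fluorescence; % is scaled to controls: 0 for no effect and ±100 for the full control effect; nearly all actives have a fitted effect of over 65% in size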
Conditions: EPAC2 GEF activity, Rap1B-BODIPY-GDP fluorescence; series mostly up to 154 µM
Records with an inconclusive call do not appear. The source made the active and inactive calls. Calls follow the shape of the dose curve; as a rule, active = well fitted activation curve with a large enough effect; inconclusive = small, poorly fitted or top-dose-only effect; inactive = no such curve, though single readings can be large or run the other way.
measured_property: activation

The cases that follow already have their activation on record.
O=C1O/C(=C/c2ccccc2)N=C1c1ccccc1 ... inactive
COC(=O)c1ccc2nc(-c3ccc(C)cc3)c(Cc3ccc(C)cc3)n2c1 ... inactive
N#Cc1c(-c2ccccc2)nc(SCC(=O)N2c3ccccc3Sc3ccccc32)[nH]c1=O ... inactive
CC(=O)N1CCc2nc3sc(C(=O)Nc4ccc(Cl)cc4F)c(N)c3c(C(F)(F)F)c2C1 ... inactive
O=C1NC(=Nc2ccccc2)S/C1=C\C=C\c1ccco1 ... inactive

Recorded activation of COc1ccc(C(CC(=O)N2CCOCC2)c2c(OC)cc(OC)c3c(-c4ccccc4)cc(=O)oc23)cc1 (stereo not given) , please. inactive

Fill blank: measured activation of the molecule `Cc1ccc(CN(C(=O)COc2cccc(Cl)c2)c2ccccn2)o1` is ____. inactive

====

Experiment: qHTS Assay for Lipid Storage Modulators (AID 1519)
Conditions: Drosophila S3 cells, BODIPY lipid droplet/cell ratio, laser cytometry; measured here: cell count channel max response; cells loaded with oleic acid
Records with an inconclusive call do not appear.
measured_property: max response
Please answer in the form of a number followed by its unit of measurement.

Recorded results for 2 compounds are shown here.
CC(=O)OCC(=O)C1CCC2C3CC=C4CC(O)CC[C@@]4(C)C3CC[C@]12C (some centres undefined) ... 22.6%
CC1O[C@@H](Oc2c(-c3ccc(O)c(O)c3)oc3cc(O)cc(O)c3c2=O)C(O)C(O)C1O (some centres undefined) ... 19.3%

Data request, read-out max response, for `CCCCCC(=O)Cc1cc(O)cc(O)c1C(=O)Oc1cc(CC(=O)CCCCC)c(C(=O)O)c(OC)c1` 7.66%

Dear colleague, I am looking for the recorded max response of the following compound: OCC1OC(n2cnc3c(Cl)nc(Cl)nc32)C(O)C1O (centres undefined) 16.5%

GET /values?readout=max response&item= COc1cc2c(cc1OC)C1(O)C(=O)c3ccc(O)c(C(=O)O)c3OC1CO2 (centres undefined) 8.21%

Which max response value is on record for CC1CCC2(OC1)OC1CC3C4CCC5CC(O)CCC5(C)C4=CCC3(C)C1C2C (centres undefined) ? 2.89%

Attribution: PubChem BioAssay (NCATS)
